Below, each entry is listed alongside its reported binding relative to wild-type Fc.
target: T1, CD16A F158 (UniProt P08637 17-208, limits assumed); assay: assay not named in Table 4
T1 construct: Only the name and allotype are printed; also called FcγRIIIA
T1 sequence (P08637 17-208 limits assumed): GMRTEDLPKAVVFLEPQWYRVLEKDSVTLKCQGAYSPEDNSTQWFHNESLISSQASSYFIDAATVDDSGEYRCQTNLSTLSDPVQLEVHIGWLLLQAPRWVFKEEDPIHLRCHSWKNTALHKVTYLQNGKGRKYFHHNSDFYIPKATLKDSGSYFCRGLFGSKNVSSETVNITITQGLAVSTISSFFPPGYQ
Please state the value as a number alone, without comment.

Completed entries (count: 5):
Binder	binding relative to wild-type Fc
Fc variant F243L R292P Y300L P396L (other, UniProt P01857-1 104-330, looked up, domain: Fc; also called Mutant 16) DKTHTCPPCPAPELLGGPSVFLLPPKPKDTLMISRTPEVTCVVVDVSHEDPEVKFNWYVDGVEVHNAKTKPPEEQYNSTLRVVSVLTVLHQDWLNGKEYKCKVSNKALPAPIEKTISKAKGQPREPQVYTLPPSRDELTKNQVSLTCLVKGFYPSDIAVEWESNGQPENNYKTTPLVLDSDGSFFLYSKLTVDKSRWQQGNVFSCSVMHEALHNHYTQKSLSLSPGK	5.62
Fc variant D270E K392T P396L (other, UniProt P01857-1 104-330, looked up, domain: Fc) DKTHTCPPCPAPELLGGPSVFLFPPKPKDTLMISRTPEVTCVVVDVSHEEPEVKFNWYVDGVEVHNAKTKPREEQYNSTYRVVSVLTVLHQDWLNGKEYKCKVSNKALPAPIEKTISKAKGQPREPQVYTLPPSRDELTKNQVSLTCLVKGFYPSDIAVEWESNGQPENNYTTTPLVLDSDGSFFLYSKLTVDKSRWQQGNVFSCSVMHEALHNHYTQKSLSLSPGK	2.28
Fc variant D270E G316D R416G (other, UniProt P01857-1 104-330, looked up, domain: Fc) DKTHTCPPCPAPELLGGPSVFLFPPKPKDTLMISRTPEVTCVVVDVSHEEPEVKFNWYVDGVEVHNAKTKPREEQYNSTYRVVSVLTVLHQDWLNDKEYKCKVSNKALPAPIEKTISKAKGQPREPQVYTLPPSRDELTKNQVSLTCLVKGFYPSDIAVEWESNGQPENNYKTTPPVLDSDGSFFLYSKLTVDKSGWQQGNVFSCSVMHEALHNHYTQKSLSLSPGK	2.49
Fc variant R292P V305I P396L (other, UniProt P01857-1 104-330, looked up, domain: Fc; also called Mutant 15) DKTHTCPPCPAPELLGGPSVFLFPPKPKDTLMISRTPEVTCVVVDVSHEDPEVKFNWYVDGVEVHNAKTKPPEEQYNSTYRVVSILTVLHQDWLNGKEYKCKVSNKALPAPIEKTISKAKGQPREPQVYTLPPSRDELTKNQVSLTCLVKGFYPSDIAVEWESNGQPENNYKTTPLVLDSDGSFFLYSKLTVDKSRWQQGNVFSCSVMHEALHNHYTQKSLSLSPGK	1.9
Fc variant R255L D270E P396L (other, UniProt P01857-1 104-330, looked up, domain: Fc) DKTHTCPPCPAPELLGGPSVFLFPPKPKDTLMISLTPEVTCVVVDVSHEEPEVKFNWYVDGVEVHNAKTKPREEQYNSTYRVVSVLTVLHQDWLNGKEYKCKVSNKALPAPIEKTISKAKGQPREPQVYTLPPSRDELTKNQVSLTCLVKGFYPSDIAVEWESNGQPENNYKTTPLVLDSDGSFFLYSKLTVDKSRWQQGNVFSCSVMHEALHNHYTQKSLSLSPGK	1.65

What binding relative to wild-type Fc value was documented for this binder, Fc variant R255L D270E Y300L P396L (other, UniProt P01857-1 104-330, looked up, domain: Fc) DKTHTCPPCPAPELLGGPSVFLFPPKPKDTLMISLTPEVTCVVVDVSHEEPEVKFNWYVDGVEVHNAKTKPREEQYNSTLRVVSVLTVLHQDWLNGKEYKCKVSNKALPAPIEKTISKAKGQPREPQVYTLPPSRDELTKNQVSLTCLVKGFYPSDIAVEWESNGQPENNYKTTPLVLDSDGSFFLYSKLTVDKSRWQQGNVFSCSVMHEALHNHYTQKSLSLSPGK ?
1.74

What binding relative to wild-type Fc value was documented for this binder, Fc variant F243L R292P Y300L V305I P396L (other, UniProt P01857-1 104-330, looked up, domain: Fc; also called Mutant 18) DKTHTCPPCPAPELLGGPSVFLLPPKPKDTLMISRTPEVTCVVVDVSHEDPEVKFNWYVDGVEVHNAKTKPPEEQYNSTLRVVSILTVLHQDWLNGKEYKCKVSNKALPAPIEKTISKAKGQPREPQVYTLPPSRDELTKNQVSLTCLVKGFYPSDIAVEWESNGQPENNYKTTPLVLDSDGSFFLYSKLTVDKSRWQQGNVFSCSVMHEALHNHYTQKSLSLSPGK ?
8.25
